Test: in vivo
Settings: NIH-III nude, mouse, plasma, iv, 78.3 mg/kg
quantityKind: AUC (µM·h)
Write the number in µM·h without appending the unit.

Problem: Find the recorded AUC belonging to `c1c2c(cc3nc(CCCN4CCOCC4)nnc13)CCC2` and report it.
Result: 3.34

====

Assay: in vivo
Settings: NIH-III, mouse, in vivo, ip, 18.6 mg/kg
// values below are reported Cmax
Provide only the numeric value, understood in µM.

Example entries begin here.
INSERT INTO assay_data (chemicalsmiles, quantitykind, unitssymbol, measured) VALUES
  ('[O-][n+]1nc(CCCN2CCOCC2)nc2cc3c(cc21)CCC3', 'Cmax', 'µM', 1.11),
  ('[O-][n+]1nc(CCCN2CCOCC2)[n+]([O-])c2cc3c(cc21)CCC3', 'Cmax', 'µM', 6.8);

Consider the record given below.
Problem: Consider the molecule shown here: `O=C(O)CCc1nc2cc3c(cc2[n+]([O-])n1)CCC3` What is its recorded Cmax?
Result: 5.44

====

Assay: in vivo
Conditions: NIH-III, mouse, in vivo, ip, 186 mg/kg, Terminal T1/2, i.p. SN30000 186 mg/kg; HT29 tumour, tumour-bearing mice
quantityKind: half-life (h)
Numbers only; they are read as h.

INSERT INTO measurements (chemicalsmiles, unitssymbol, measured) VALUES
  ('[O-][n+]1nc(CCCN2CCOCC2)[n+]([O-])c2cc3c(cc21)CCC3', 'h', 0.603);

Problem: Name the reported half-life value associated with the molecule `[O-][n+]1nc(CCCN2CCOCC2)nc2cc3c(cc21)CCC3`
Result: 1.58

====

Assay: in vivo
Conditions: female, NIH-III nude, mouse, plasma, ip, T1/2, administered 16hr after SN30000 0 mg/kg
quantityKind: half-life
In your response, put the unit directly after the numeric value.

Problem: // query half-life value for entry `OC[C@@H](O)[C@@H](O)[C@H](O)[C@H](O)CO`
Result: 19.7 min

====

Assay: in vivo
Details: female, NIH-III nude, mouse, plasma, ip, Cmax, co-administered with SN30000 18.6 mg/kg i.p.
quantityKind: Cmax (µM)
// units = µM; emit number, no label

Problem: Any idea what its Cmax is? The compound is `OC[C@@H](O)[C@@H](O)[C@H](O)[C@H](O)CO`
Result: 43.5

====

Assay: in vivo
Details: NIH-III nude, mouse, in vivo, iv, 1.86 mg/kg
quantityKind: Vd (L/kg)
Respond numerically; units are L/kg and should not be typed.

Problem: Would you mind telling me what Vd value was observed for `[O-][n+]1nc(CCCN2CCOCC2)[n+]([O-])c2cc3c(cc21)CCC3` ?
Result: 1.52

====

Experiment: in vivo
Conditions: NIH-III nude, mouse, in vivo, iv, 78.3 mg/kg
quantityKind: Cmax

Problem: # input compound: `[O-][n+]1nc(CCCN2CCOCC2)[n+]([O-])c2cc3c(cc21)CCC3` ; wanted: its Cmax
Result: 81.9 µM

====

Measured AUC accompanies every entry in the list below.
Assay: in vivo
Conditions: NIH-III nude, mouse, in vivo, iv, 18.6 mg/kg

INSERT INTO results (chemicalsmiles, quantitykind, measured) VALUES
  ('O=C(O)CCc1nc2cc3c(cc2[n+]([O-])n1)CCC3', 'AUC', '10.1 µM·h'),
  ('[O-][n+]1nc(CCCN2CCOCC2)nc2cc3c(cc21)CCC3', 'AUC', '0.6 µM·h');

Now, please, on to the next molecule.
Problem: Given the molecule `[O-][n+]1nc(CCCN2CCOCC2)[n+]([O-])c2cc3c(cc21)CCC3` , what is its reported AUC?
Result: 8.1 µM·h
